Attribute: Emax
- subjectOfTest: GluN2B glutamate receptors (Homo sapiens (Human), UniProt Q05586+Q13224)
- Sequence (Q13224 27-1484, other chains not shown): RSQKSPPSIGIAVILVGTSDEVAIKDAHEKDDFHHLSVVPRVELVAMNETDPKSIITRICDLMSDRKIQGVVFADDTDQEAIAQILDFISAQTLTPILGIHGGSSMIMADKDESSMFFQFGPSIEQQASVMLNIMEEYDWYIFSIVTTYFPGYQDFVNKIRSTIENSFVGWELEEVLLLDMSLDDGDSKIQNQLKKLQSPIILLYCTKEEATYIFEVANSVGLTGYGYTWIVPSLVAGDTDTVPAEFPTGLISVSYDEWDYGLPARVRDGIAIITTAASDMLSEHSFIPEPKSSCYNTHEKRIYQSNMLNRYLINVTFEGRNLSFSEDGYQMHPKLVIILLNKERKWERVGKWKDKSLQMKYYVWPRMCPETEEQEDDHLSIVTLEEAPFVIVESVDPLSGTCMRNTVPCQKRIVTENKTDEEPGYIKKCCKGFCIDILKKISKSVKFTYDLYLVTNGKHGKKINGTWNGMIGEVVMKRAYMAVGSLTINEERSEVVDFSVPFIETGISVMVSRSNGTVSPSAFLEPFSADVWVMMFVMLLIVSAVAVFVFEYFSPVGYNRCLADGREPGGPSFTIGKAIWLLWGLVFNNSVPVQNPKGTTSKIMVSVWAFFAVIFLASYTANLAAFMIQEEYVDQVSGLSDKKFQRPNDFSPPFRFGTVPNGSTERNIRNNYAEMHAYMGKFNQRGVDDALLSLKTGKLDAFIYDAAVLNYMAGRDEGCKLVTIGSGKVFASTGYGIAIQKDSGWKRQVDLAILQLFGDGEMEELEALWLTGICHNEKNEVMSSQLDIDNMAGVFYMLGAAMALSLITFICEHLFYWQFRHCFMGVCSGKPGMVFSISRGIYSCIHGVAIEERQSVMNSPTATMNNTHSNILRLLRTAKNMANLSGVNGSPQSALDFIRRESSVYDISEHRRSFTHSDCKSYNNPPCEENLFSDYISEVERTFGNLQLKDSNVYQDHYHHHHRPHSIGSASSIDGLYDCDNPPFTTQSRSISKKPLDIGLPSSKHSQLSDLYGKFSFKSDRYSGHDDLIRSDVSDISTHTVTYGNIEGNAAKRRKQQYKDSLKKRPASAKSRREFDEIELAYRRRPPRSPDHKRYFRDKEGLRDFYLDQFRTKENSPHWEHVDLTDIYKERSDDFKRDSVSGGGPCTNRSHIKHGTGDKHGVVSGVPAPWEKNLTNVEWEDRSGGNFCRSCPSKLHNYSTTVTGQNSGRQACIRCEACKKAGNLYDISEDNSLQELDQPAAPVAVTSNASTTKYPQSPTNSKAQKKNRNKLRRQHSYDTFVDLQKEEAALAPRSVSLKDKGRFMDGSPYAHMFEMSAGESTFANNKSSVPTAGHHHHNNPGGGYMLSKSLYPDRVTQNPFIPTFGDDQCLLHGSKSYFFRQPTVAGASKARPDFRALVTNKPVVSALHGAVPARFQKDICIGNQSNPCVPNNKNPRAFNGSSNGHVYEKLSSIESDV
- test: Whole-cell patch clamp of mammalian cells (Ionworks Barracuda), positive allosteric modulation, GluN2B
- Assay type: cell-based
- runParameters: % potentiation of current elicited with EC20 L-glutamate and 30 μM glycine; read-out: Avg Emax 2B (%)
measuredEndpoint: Emax (%)

{"compound": "C[C@H](CCC(O)c1cccnc1)[C@H]1CC[C@H]2[C@@H]3CC=C4C[C@@](C)(O)CC[C@]4(C)[C@H]3CC[C@]12C (stereo partly shown)", "measuredEndpoint": "Emax", "assayValue": 132}
{"compound": "CC[C@]1(O)CC[C@@]2(C)[C@@H](CC[C@@H]3[C@@H]2CC[C@]2(C)[C@@H]([C@H](C)CC[C@H](O)c4ccccc4)CC[C@@H]32)C1", "measuredEndpoint": "Emax", "assayValue": 251}
{"compound": "CC[C@]1(O)CC[C@H]2C(=CC[C@@H]3[C@@H]2CC[C@]2(C)[C@@H]([C@H](C)CCC[C@H](O)C(C)C)CC[C@@H]32)C1", "measuredEndpoint": "Emax", "assayValue": 226}
{"compound": "C[C@H](CCC[C@@H](O)C(F)(F)F)[C@H]1CC[C@H]2[C@@H]3CC[C@H]4C[C@](O)(C(F)(F)F)CC[C@]4(C)[C@H]3CC[C@]12C", "measuredEndpoint": "Emax", "assayValue": 294}
